Where do the numbers come from? From patent US8101605B2.

- TEST SYSTEM: His-hSHIP1 enzyme (Homo sapiens, UniProt Q92835)
- Sequence (Q92835 whole entry): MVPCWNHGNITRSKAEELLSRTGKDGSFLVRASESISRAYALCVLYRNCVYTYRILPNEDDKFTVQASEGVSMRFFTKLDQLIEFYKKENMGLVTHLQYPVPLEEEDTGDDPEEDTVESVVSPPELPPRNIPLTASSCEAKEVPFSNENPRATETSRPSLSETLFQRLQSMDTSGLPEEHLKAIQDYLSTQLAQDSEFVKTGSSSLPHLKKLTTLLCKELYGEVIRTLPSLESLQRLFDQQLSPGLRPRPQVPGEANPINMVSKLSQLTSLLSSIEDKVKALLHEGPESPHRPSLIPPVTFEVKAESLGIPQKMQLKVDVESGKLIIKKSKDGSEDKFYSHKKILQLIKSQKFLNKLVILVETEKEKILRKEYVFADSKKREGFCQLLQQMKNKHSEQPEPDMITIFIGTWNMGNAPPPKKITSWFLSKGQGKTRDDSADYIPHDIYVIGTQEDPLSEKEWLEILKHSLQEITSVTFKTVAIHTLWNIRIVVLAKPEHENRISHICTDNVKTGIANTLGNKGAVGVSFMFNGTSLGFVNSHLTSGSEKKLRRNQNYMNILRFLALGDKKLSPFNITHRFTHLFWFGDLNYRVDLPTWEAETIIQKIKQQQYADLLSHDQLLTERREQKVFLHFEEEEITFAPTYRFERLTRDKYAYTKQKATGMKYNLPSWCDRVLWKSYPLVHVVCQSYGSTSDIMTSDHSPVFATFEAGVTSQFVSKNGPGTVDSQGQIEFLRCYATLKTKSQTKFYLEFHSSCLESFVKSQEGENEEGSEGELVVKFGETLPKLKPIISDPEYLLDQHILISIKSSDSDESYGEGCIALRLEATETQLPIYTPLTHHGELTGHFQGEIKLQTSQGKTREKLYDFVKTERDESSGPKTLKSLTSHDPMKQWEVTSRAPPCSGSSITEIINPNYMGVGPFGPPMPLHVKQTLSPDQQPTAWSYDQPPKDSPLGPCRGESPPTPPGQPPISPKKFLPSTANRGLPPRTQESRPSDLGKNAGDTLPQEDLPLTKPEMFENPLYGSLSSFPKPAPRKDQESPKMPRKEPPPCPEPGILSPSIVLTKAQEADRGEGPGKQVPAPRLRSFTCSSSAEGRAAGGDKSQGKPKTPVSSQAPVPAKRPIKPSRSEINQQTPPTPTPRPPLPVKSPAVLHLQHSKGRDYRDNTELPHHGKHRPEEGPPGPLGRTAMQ
- EXPERIMENT SUMMARY: His-hSHIP1 phosphatase activity assay (IP4 substrate, Biomol Green)
- Type: biochemical
- CONDITION NOTES: percentage increase relative to background; concentrations ≦300 μM
REPORTED ENDPOINT: Scoring: percent (%) activation of His-hSHIP1 enzyme

# COMPOUND, RECORDED MEASUREMENT
records = [
    ("CN1CCN(C(=O)c2cc(O)c3c(c2)S(=O)(=O)C[C@@H]2[C@@]4(C)CCCC(C)(C)[C@@H]4CC[C@@]32C)CC1 [compound 89]", "+ (<50%)"),
    ("COc1cc(O)c2c(c1)OC[C@@H]1[C@@]3(C)CCCC(C)(C)[C@@H]3CC[C@@]21C [Compound No. 39]", "++ (≧50% but <65%)"),
    ("COc1cc(O)c(CN2CCOCC2)c2c1[C@]1(C)CC[C@H]3C(C)(C)CCC[C@]3(C)[C@H]1CS2(=O)=O [compound 106]", "+ (<50%)"),
    ("CNC(=O)c1cc(O)cc2c1[C@]1(C)CC[C@H]3C(C)(C)CCC[C@]3(C)[C@H]1CS2 [compound 76]", "+ (<50%)"),
]

Query: Bench note: what Scoring: percent (%) activation of His-hSHIP1 enzyme did CNC(=O)c1cc(O)c2c(c1)S(=O)(=O)C[C@@H]1[C@@]3(C)CCCC(C)(C)[C@@H]3CC[C@@]21C [Compound No. 62] show?
Reply: ++ (≧50% but <65%)
